These data points were gathered from ChEMBL document CHEMBL1201862.

system: SF-295; experiment: NCI tumour cell line growth inhibition, 48 h
Activity calls are given as the source filed them. Rule as the data show it: active = GI50 up to about 1.1 µM and inactive = higher.

>  <Compound>
CP(C)(=S)P(C)(C)=S

>  <GI50>
> 100 µM (inactive)

$$$$
>  <Compound>
CN1c2ccccc2N(C)C23N(C)c4ccccc4N(C)C12N(C)c1ccccc1N3C (stereo unspecified)

>  <GI50>
> 100 µM (inactive)

$$$$
>  <Compound>
CC1=CC(=O)C(C)(C2=NC(C)(C)CO2)c2ccccc21 (stereo unspecified)

>  <GI50>
> 100 µM (inactive)

$$$$
>  <Compound>
Nc1nc(N)c2cc(-c3cc4ccccc4[nH]3)ccc2n1

>  <GI50>
27.6 µM (inactive)

$$$$
>  <Compound>
Cc1ccccc1/C=C/c1csnn1

>  <GI50>
> 100 µM (inactive)

$$$$
>  <Compound>
CN(C)CCNc1ccc([N+](=O)[O-])c2sc3ccccc3c(=O)c12

>  <GI50>
4.24 µM (inactive)

$$$$
